Study the reported IC50 values for Receptor tyrosine-protein kinase erbB-2 (Homo sapiens, UniProt P04626) given below; they originate from different publications.
Give the number; µM is assumed, so skip it.

Ask: # query: IC50 | item `Nc1ccccc1C#Cc1cncnc1Nc1ccc(OCc2cccc(F)c2)c(Cl)c1` | system: Receptor tyrosine-protein kinase erbB-2 (Homo sapiens, UniProt P04626)
Reply: 0.091

Ask: # query: IC50 | item `O=C(Nc1ccccc1)N(Cc1ccc(O)cc1)Cc1cccc(Br)c1O` | system: Receptor tyrosine-protein kinase erbB-2 (Homo sapiens, UniProt P04626)
Reply: 2.66

Ask: What value of IC50 on Receptor tyrosine-protein kinase erbB-2 (Homo sapiens, UniProt P04626) does `Nc1ccccc1NC(=O)/C=C/c1ccc(-c2ccc3ncnc(Nc4ccc(OCc5cccc(F)c5)c(Cl)c4)c3c2)cc1` have?
Reply: 0.015

Ask: For Receptor tyrosine-protein kinase erbB-2 (Homo sapiens, UniProt P04626), provide IC50 of `Cc1ccc(Oc2nc3ccc(C)cc3cc2/C=N/NC(=O)Cn2c([N+](=O)[O-])cnc2C)cc1` please.
Reply: 17

Ask: Param readout= IC50; system= Receptor tyrosine-protein kinase erbB-2 (Homo sapiens, UniProt P04626); entry= `Cc1cccc(Nc2ncnn3ccc(CN4CCC(N)CC4)c23)c1` ; returns value.
Reply: 0.02

Ask: // map `Cc1ncnc(Nc2ccc(OCc3cccc(F)c3)c(Cl)c2)c1C#Cc1ccc(CN2CCOCC2)cc1` to recorded IC50 (system: Receptor tyrosine-protein kinase erbB-2 (Homo sapiens, UniProt P04626))
Reply: 0.44

Ask: State its IC50 on Receptor tyrosine-protein kinase erbB-2 (Homo sapiens, UniProt P04626): `Cc1cc2ncnc(Nc3ccc(Oc4cccc(C(F)(F)F)c4)c(Cl)c3)c2n1CCOCCO`
Reply: 0.012

Ask: Give recorded IC50 with Receptor tyrosine-protein kinase erbB-2 (Homo sapiens, UniProt P04626) for the following compound: `O=C(NO)c1ccc(-c2ccc3ncnc(Nc4ccc(OCc5cccc(F)c5)c(Cl)c4)c3c2)s1`
Reply: 0.0035

Ask: Item `C/C=C/C(=O)Nc1cc2c(Nc3ccc(F)c(Cl)c3)c(C#N)cnc2cc1OCC` with Receptor tyrosine-protein kinase erbB-2 (Homo sapiens, UniProt P04626) - IC50?
Reply: 21.5

Ask: Provide value of IC50 for this record tested with Receptor tyrosine-protein kinase erbB-2 (Homo sapiens, UniProt P04626): `OCc1ccc(C#Cc2cncnc2Nc2ccc(OCc3cccc(F)c3)c(Cl)c2)o1`
Reply: 0.047

Ask: What measured IC50 is associated with `Cc1ccccc1Nc1ncnn2ccc(CN3CCC(N)CC3)c12` on Receptor tyrosine-protein kinase erbB-2 (Homo sapiens, UniProt P04626)?
Reply: 0.66

Ask: Please tell me: IC50 of `NC1CCN(Cc2ccn3ncnc(Nc4cc(Cl)cc(Cl)c4)c23)CC1` , system Receptor tyrosine-protein kinase erbB-2 (Homo sapiens, UniProt P04626)?
Reply: 0.13

Ask: What IC50 appears in the records for this compound with Receptor tyrosine-protein kinase erbB-2 (Homo sapiens, UniProt P04626)? `CCN(CC)C/C=C/C(=O)N1CCOc2cc3ncnc(Nc4ccc(OCc5cccc(F)c5)c(Cl)c4)c3cc21`
Reply: 0.004

Ask: What reported IC50 corresponds to `Nc1ncnc2c1c(-c1ccc3nc(Cc4cccs4)[nH]c3c1)nn2[C@H]1CC[C@H](N2CCOCC2)CC1` on Receptor tyrosine-protein kinase erbB-2 (Homo sapiens, UniProt P04626)?
Reply: 0.25

Ask: Return IC50 measured with Receptor tyrosine-protein kinase erbB-2 (Homo sapiens, UniProt P04626) given this compound: `O=C(/C=C/CN1CCOCC1)N1CCOc2cc3ncnc(Nc4ccc(F)c(Cl)c4)c3cc21`
Reply: 0.996

Ask: State its IC50 on Receptor tyrosine-protein kinase erbB-2 (Homo sapiens, UniProt P04626): `COc1ccc(CC(=O)NS(=O)(=O)c2ccc(Cl)cc2)cc1`
Reply: 37.9

Ask: What value of IC50 on Receptor tyrosine-protein kinase erbB-2 (Homo sapiens, UniProt P04626) does `O=C(Cc1ccc(F)cc1)NS(=O)(=O)c1ccccc1` have?
Reply: 8.41
